Taken from the supplement of paper PMC6658780.

Listing of entries alongside the reported percent growth inhibition of drug alone.
System: Klebsiella pneumoniae KPC-119
RUN DESCRIPTION: percent growth inhibition of drug alone vs DMSO control; higher = more growth inhibition
EXPERIMENTAL CONDITIONS: antibiotic (0.125x MIC): none (0.1% DMSO); 7 µM
Where a name gives a salt, the structure may show the parent alone.
PROPERTY LABEL: percent growth inhibition of drug alone (%)

{"COMPOUND": "C[C@@H]1CN(c2c(F)c(N)c3c(=O)c(C(=O)O)cn(C4CC4)c3c2F)C[C@H](C)N1", "PROPERTY LABEL": "percent growth inhibition of drug alone", "UNIT ABBREVIATION": "%", "NUMERIC READOUT": 33.5}
{"COMPOUND": "Oc1c(I)cc(Cl)c2cccnc12", "PROPERTY LABEL": "percent growth inhibition of drug alone", "UNIT ABBREVIATION": "%", "NUMERIC READOUT": 12.1}
{"COMPOUND": "O=C1OCCN1/N=C/c1ccc([N+](=O)[O-])o1", "PROPERTY LABEL": "percent growth inhibition of drug alone", "UNIT ABBREVIATION": "%", "NUMERIC READOUT": 18.3}
{"COMPOUND": "CCOC(=O)OC(C)OC(=O)[C@@H]1N2C(=O)[C@@H](NC(=O)[C@H](N)c3ccccc3)[C@H]2SC1(C)C (stereo partly drawn) [Bacampicillin hydrochloride]", "PROPERTY LABEL": "percent growth inhibition of drug alone", "UNIT ABBREVIATION": "%", "NUMERIC READOUT": 0.511}
{"COMPOUND": "CCn1cc(C(=O)O)c(=O)c2cc(F)c(N3CCNCC3)nc21", "PROPERTY LABEL": "percent growth inhibition of drug alone", "UNIT ABBREVIATION": "%", "NUMERIC READOUT": 1.76}
{"COMPOUND": "COc1cccc2c1C(=O)c1c(O)c3c(c(O)c1C2=O)C[C@@](O)(C(=O)CO)C[C@@H]3O[C@H]1C[C@H](N)[C@@H](O)[C@H](C)O1 [Epirubicin hydrochloride]", "PROPERTY LABEL": "percent growth inhibition of drug alone", "UNIT ABBREVIATION": "%", "NUMERIC READOUT": -1.63}
{"COMPOUND": "CC1CCc2cc(F)cc3c(=O)c(C(=O)O)cn1c23 (stereo not drawn)", "PROPERTY LABEL": "percent growth inhibition of drug alone", "UNIT ABBREVIATION": "%", "NUMERIC READOUT": 15.2}
{"COMPOUND": "CO[C@H]1/C=C/O[C@@]2(C)Oc3c(C)c(O)c4c(O)c(c(/C=N/N5CCN(C6CCCC6)CC5)c(O)c4c3C2=O)NC(=O)/C(C)=C\\C=C\\[C@H](C)[C@H](O)[C@@H](C)[C@@H](O)[C@@H](C)[C@H](OC(C)=O)[C@@H]1C", "PROPERTY LABEL": "percent growth inhibition of drug alone", "UNIT ABBREVIATION": "%", "NUMERIC READOUT": 2.17}

###

System: Klebsiella pneumoniae KPC-119
RUN DESCRIPTION: percent growth inhibition of drug + antibiotic vs DMSO control; higher = more growth inhibition
EXPERIMENTAL CONDITIONS: antibiotic (0.125x MIC): meropenem; 20 µM
Structures can show the parent of a compound that is named as a salt.
Listing of entries alongside the reported percent growth inhibition.
PROPERTY LABEL: percent growth inhibition (%)

{"MOLECULE": "NCC[C@H](O)C(=O)N[C@@H]1C[C@H](N)[C@@H](O[C@H]2O[C@H](CN)[C@@H](O)[C@H](O)[C@H]2O)[C@H](O)[C@H]1O[C@H]1O[C@H](CO)[C@@H](O)[C@H](N)[C@H]1O [Amikacin hydrate]", "UNIT ABBREVIATION": "%", "NUMERIC READOUT": 99.7}
{"MOLECULE": "CCCCC(CC)CNC(=N)NC(=N)NCCCCCCNC(=N)NC(=N)NCC(CC)CCCC (stereo unspecified) [Alexidine dihydrochloride]", "UNIT ABBREVIATION": "%", "NUMERIC READOUT": 100}
{"MOLECULE": "O=C(O)c1cn(-c2ccc(F)cc2)c2cc(N3CCNCC3)c(F)cc2c1=O", "UNIT ABBREVIATION": "%", "NUMERIC READOUT": 83.6}
{"MOLECULE": "CC1COc2c(N3CCN(C)CC3)c(F)cc3c(=O)c(C(=O)O)cn1c23 (stereo unspecified)", "UNIT ABBREVIATION": "%", "NUMERIC READOUT": 99.9}
{"MOLECULE": "CC(=O)OC[C@H]1O[C@@H]([S-])[C@H](OC(C)=O)[C@@H](OC(C)=O)[C@@H]1OC(C)=O.CCP(CC)CC.[Au+]", "UNIT ABBREVIATION": "%", "NUMERIC READOUT": 99.5}
{"MOLECULE": "O=c1[nH]c(=O)n([C@H]2C[C@H](O)[C@@H](CO)O2)cc1F", "UNIT ABBREVIATION": "%", "NUMERIC READOUT": 98.5}
